System: receptor labeled by the radioiodinated analogue of 1 (4, [125I]-YLFQPQRF-NH2); neuropeptide FF receptor
TEST_SUMMARY: Competitive radioligand binding against 4 ([125I]Y8F-amide)
SETTINGS: mixture-based positional scanning; difference from averaged radioligand displacement of whole library (0); about 80 a.u. = 10-fold change in Ki
Peptide text beside a SMILES is read from it. * marks the point of attachment. Dansyl = CN(C)c1cccc2c(S(=O)(=O)*)cccc12
PROPERTY_NAME: Relative Binding Index (RBI) (a.u.)

COMPOUND: CN(C)c1cccc2c(S(=O)(=O)N[C@@H](CCCNC(=N)N)C(=O)N[C@@H](CCCCN)C(=O)N[C@@H](CCCNC(=N)N)C(N)=O)cccc12 [Dansyl-RKR-amide] (Dansyl-Arg-Lys-Arg-NH2)
UNITS_SYMBOL: a.u.
Relative Binding Index (RBI): 4

(P) CC(C)C[C@H](NC(=O)[C@H](CC(=O)O)NS(=O)(=O)c1cccc2c(N(C)C)cccc12)C(=O)N[C@@H](CCCNC(=N)N)C(N)=O [Dansyl-DLR-amide] (Dansyl-Asp-Leu-Arg-NH2)
(Q) CN(C)c1cccc2c(S(=O)(=O)N[C@@H](Cc3c[nH]c4ccccc34)C(=O)N[C@@H](CCCCN)C(=O)N[C@@H](CCCNC(=N)N)C(N)=O)cccc12 [Dansyl-WKR-amide] (Dansyl-Trp-Lys-Arg-NH2)
(R) C[C@H](NS(=O)(=O)c1cccc2c(N(C)C)cccc12)C(=O)N[C@@H](CC(N)=O)C(=O)N[C@@H](CCCNC(=N)N)C(N)=O [Dansyl-ANR-amide] (Dansyl-Ala-Asn-Arg-NH2)
(S) CC[C@H](C)[C@H](NC(=O)[C@H](CCC(N)=O)NS(=O)(=O)c1cccc2c(N(C)C)cccc12)C(=O)N[C@@H](CCCNC(=N)N)C(N)=O [Dansyl-QIR-amide] (Dansyl-Gln-Ile-Arg-NH2)
In: // ascending sort on recorded Relative Binding Index (RBI) I would appreciate it if you listed the labels in the requested order.
Out: P, Q, R, S
(P: −14 a.u., Q: 6 a.u., R: 13 a.u., S: 28 a.u.)

---

Tested on: receptor labeled by the radioiodinated analogue of 1 (4, [125I]-YLFQPQRF-NH2); neuropeptide FF receptor
TEST_SUMMARY: Competitive radioligand binding against 4 ([125I]Y8F-amide)
SETTINGS: mixture-based positional scanning; difference from averaged radioligand displacement of whole library (0); about 80 a.u. = 10-fold change in Ki
Peptide text beside a SMILES is read from it. * marks the point of attachment. Dansyl = CN(C)c1cccc2c(S(=O)(=O)*)cccc12
PROPERTY_NAME: Relative Binding Index (RBI) (a.u.)

Some compounds with known Relative Binding Index (RBI) results, for comparison:
COMPOUND: CC(C)[C@H](NS(=O)(=O)c1cccc2c(N(C)C)cccc12)C(=O)N[C@@H](CCC(=O)O)C(=O)N[C@@H](CCCNC(=N)N)C(N)=O [Dansyl-VER-amide] (Dansyl-Val-Glu-Arg-NH2)
Relative Binding Index (RBI) [a.u.]: −4
//
COMPOUND: CN(C)c1cccc2c(S(=O)(=O)N[C@@H](CC(=O)O)C(=O)N[C@@H](Cc3ccc(O)cc3)C(=O)N[C@@H](CCCNC(=N)N)C(N)=O)cccc12 [Dansyl-DYR-amide] (Dansyl-Asp-Tyr-Arg-NH2)
Relative Binding Index (RBI) [a.u.]: −7
//
COMPOUND: CN(C)c1cccc2c(S(=O)(=O)N[C@@H](CCC(N)=O)C(=O)N3CCC[C@H]3C(=O)N[C@@H](CCCNC(=N)N)C(N)=O)cccc12 [Dansyl-QPR-amide] (Dansyl-Gln-Pro-Arg-NH2)
Relative Binding Index (RBI) [a.u.]: 25
//
COMPOUND: CSCC[C@H](NC(=O)[C@@H](NS(=O)(=O)c1cccc2c(N(C)C)cccc12)[C@@H](C)O)C(=O)N[C@@H](CCCNC(=N)N)C(N)=O [Dansyl-TMR-amide] (Dansyl-Thr-Met-Arg-NH2)
Relative Binding Index (RBI) [a.u.]: −9

(a) CN(C)c1cccc2c(S(=O)(=O)N[C@@H](CCCCN)C(=O)N[C@@H](CCCNC(=N)N)C(=O)N[C@@H](CCCNC(=N)N)C(N)=O)cccc12 [Dansyl-KRR-amide] (Dansyl-Lys-Arg-Arg-NH2)
(b) CC(C)[C@H](NC(=O)[C@H](C)NS(=O)(=O)c1cccc2c(N(C)C)cccc12)C(=O)N[C@@H](CCCNC(=N)N)C(N)=O [Dansyl-AVR-amide] (Dansyl-Ala-Val-Arg-NH2)
In: Would you kindly point out which of a and b has the smaller Relative Binding Index (RBI) figure? Refer to your chosen item by its label in the answer.
Out: b

---

Test system: receptor labeled by the radioiodinated analogue of 1 (4, [125I]-YLFQPQRF-NH2); neuropeptide FF receptor
TEST_SUMMARY: Competitive radioligand binding against 4 ([125I]Y8F-amide)
SETTINGS: mixture-based positional scanning; difference from averaged radioligand displacement of whole library (0); about 80 a.u. = 10-fold change in Ki
Peptide text beside a SMILES is read from it. * marks the point of attachment. Dansyl = CN(C)c1cccc2c(S(=O)(=O)*)cccc12
PROPERTY_NAME: Relative Binding Index (RBI) (a.u.)

Some compounds with known Relative Binding Index (RBI) results, for comparison:
COMPOUND: C[C@@H](O)[C@H](NS(=O)(=O)c1cccc2c(N(C)C)cccc12)C(=O)N[C@@H](CCCCN)C(=O)N[C@@H](CCCNC(=N)N)C(N)=O [Dansyl-TKR-amide] (Dansyl-Thr-Lys-Arg-NH2)
Relative Binding Index (RBI) [a.u.]: −11

COMPOUND: CN(C)c1cccc2c(S(=O)(=O)NCC(=O)NC(CO)C(=O)NC(CCCNC(=N)N)C(N)=O)cccc12 (stereo not drawn) [Compound 5, dansyl-Gly-Ser-Arg-NH2] (Dansyl-Gly-Ser-Arg-NH2; configuration not given here)
Relative Binding Index (RBI) [a.u.]: 46

(A) CSCC[C@H](NC(=O)[C@H](CC(=O)O)NS(=O)(=O)c1cccc2c(N(C)C)cccc12)C(=O)N[C@@H](CCCNC(=N)N)C(N)=O [Dansyl-DMR-amide] (Dansyl-Asp-Met-Arg-NH2)
(B) CSCC[C@H](NS(=O)(=O)c1cccc2c(N(C)C)cccc12)C(=O)N[C@@H](Cc1ccc(O)cc1)C(=O)N[C@@H](CCCNC(=N)N)C(N)=O [Dansyl-MYR-amide] (Dansyl-Met-Tyr-Arg-NH2)
In: Would you kindly point out which of A and B has the smaller Relative Binding Index (RBI) figure? Refer to your chosen item by its label in the answer.
Out: B

(1) CN(C)c1cccc2c(S(=O)(=O)NCC(=O)N[C@@H](CCCNC(=N)N)C(=O)N[C@@H](CCCNC(=N)N)C(N)=O)cccc12 [Dansyl-GRR-amide]
(2) CN(C)c1cccc2c(S(=O)(=O)N[C@@H](Cc3c[nH]c4ccccc34)C(=O)NCC(=O)N[C@@H](CCCNC(=N)N)C(N)=O)cccc12 [Dansyl-WGR-amide] (Dansyl-Trp-Gly-Arg-NH2)
In: Which record would sort first by descending Relative Binding Index (RBI), 1 or 2 ? Refer to your chosen item by its label in the answer.
Out: 1
(1: 24 a.u., 2: 14 a.u.)

---

Tested on: receptor labeled by the radioiodinated analogue of 1 (4, [125I]-YLFQPQRF-NH2); neuropeptide FF receptor
TEST_SUMMARY: Competitive radioligand binding against 4 ([125I]Y8F-amide)
SETTINGS: mixture-based positional scanning; difference from averaged radioligand displacement of whole library (0); about 80 a.u. = 10-fold change in Ki
Peptide text beside a SMILES is read from it. * marks the point of attachment. Dansyl = CN(C)c1cccc2c(S(=O)(=O)*)cccc12
PROPERTY_NAME: Relative Binding Index (RBI) (a.u.)

Some compounds with known Relative Binding Index (RBI) results, for comparison:
COMPOUND: CN(C)c1cccc2c(S(=O)(=O)N[C@@H](Cc3c[nH]c4ccccc34)C(=O)N[C@@H](Cc3ccccc3)C(=O)N[C@@H](CCCNC(=N)N)C(N)=O)cccc12 [Dansyl-WFR-amide]
UNITS_SYMBOL: a.u.
READOUT_VALUE: 7
//
COMPOUND: CN(C)c1cccc2c(S(=O)(=O)N[C@@H](CC(=O)O)C(=O)NCC(=O)N[C@@H](CCCNC(=N)N)C(N)=O)cccc12 [Dansyl-DGR-amide] (Dansyl-Asp-Gly-Arg-NH2)
UNITS_SYMBOL: a.u.
READOUT_VALUE: 0
//
COMPOUND: CN(C)c1cccc2c(S(=O)(=O)N[C@@H](CCCCN)C(=O)N[C@@H](Cc3ccccc3)C(=O)N[C@@H](CCCNC(=N)N)C(N)=O)cccc12 [Dansyl-KFR-amide] (Dansyl-Lys-Phe-Arg-NH2)
UNITS_SYMBOL: a.u.
READOUT_VALUE: 23

(P) CC[C@H](C)[C@H](NC(=O)[C@@H](NS(=O)(=O)c1cccc2c(N(C)C)cccc12)C(C)C)C(=O)N[C@@H](CCCNC(=N)N)C(N)=O [Dansyl-VIR-amide] (Dansyl-Val-Ile-Arg-NH2)
(Q) CSCC[C@H](NC(=O)[C@H](CCCCN)NS(=O)(=O)c1cccc2c(N(C)C)cccc12)C(=O)N[C@@H](CCCNC(=N)N)C(N)=O [Dansyl-KMR-amide] (Dansyl-Lys-Met-Arg-NH2)
In: Would you kindly point out which of P and Q has the smaller Relative Binding Index (RBI) figure? Refer to your chosen item by its label in the answer.
Out: P
